Molecular target: thrombin
Assay: Ki(app.) from kinetics of thrombin inhibition with chromogenic substrate D-HHT-Gly-Arg-pNA (Stone and Hofsteenge), 25° C.
pKi: −log10 of the molar value.
metric-name: pKi

| binder | metric-name | observed-result |
| --- | --- | --- |
| [Ala^1,Thr^2,Gln^52,Glu^53,Ala^54] desulfatohirudin (protein) ATYTDCTESGQNLCLCEGSNVCGQGNKCILGSDGEKNQCVTGEGTPKPQSHQEADFEEIPEEYLQ | pKi | 9.66 |
| [Ala^1,Thr^2,Glu^33,Ala^54] desulfatohirudin (protein) ATYTDCTESGQNLCLCEGSNVCGQGNKCILGSEGEKNQCVTGEGTPKPQSHNDADFEEIPEEYLQ | pKi | 9.46 |
| [Ala^1,Thr^2,Gln^52,Glu^53,Glu^55] desulfatohirudin (protein) ATYTDCTESGQNLCLCEGSNVCGQGNKCILGSDGEKNQCVTGEGTPKPQSHQEGEFEEIPEEYLQ | pKi | 9.72 |
| [Ala^1,Thr^2,Glu^33,Gln^52,Glu^53,Ala^54]-desulfatohirudin (protein) ATYTDCTESGQNLCLCEGSNVCGQGNKCILGSEGEKNQCVTGEGTPKPQSHQEADFEEIPEEYLQ | pKi | 9.51 |
| [Ala^1,Thr^2,Glu^33,Glu^53] desulfatohirudin (protein) ATYTDCTESGQNLCLCEGSNVCGQGNKCILGSDGEKNQCVTGEGTPKPQSHNEGDFEEIPEEYLQ | pKi | 9.43 |
| [Ala^1,Thr^2,Ala^54] desulfatohirudin (protein) ATYTDCTESGQNLCLCEGSNVCGQGNKCILGSDGEKNQCVTGEGTPKPQSHNDADFEEIPEEYLQ | pKi | 9.57 |
